Assay: Phase I clinical trial: plasma concentrations after weekly intravenous infusion (pharmacokinetics)
Format: in vivo, human
Settings: human, plasma, iv, 3.9 mg/m^2, Day 15; 3.9 mg/m^2 i.v.; infusion 2 hr; 1 hr after infusion; LLOQ 1 ng/mL
Method: An open-label, dose-escalating, multiple-dose study to define the safety, tolerability and pharmacokinetics of weekly intravenous administration of (4-Methoxy-phenyl)-methyl-(2-methyl-quinazolin-4-yl)-amine hydrochloride was performed. […] Any clinically significant electrocardiographic (ECG) wave form abnormality was recorded and prolongation of the monitoring period extended at the discretion of the principal investigator. […]
Where a name gives a salt, the structure may show the parent alone.
READOUT_KIND: concentration at 1 h (ng/mL)
Answers are plain numbers, in ng/mL.

Incoming: Indicate its recorded concentration at 1 h; the compound in question is COc1ccc(N(C)c2nc(C)nc3ccccc23)cc1 [hydrochloride]
Outgoing: 10.6

---

assay: Phase I clinical trial: plasma concentrations after weekly intravenous infusion (pharmacokinetics); type: in vivo, human; conditions: human, plasma, iv, 1.5 mg/m^2, Day 1; 1.5 mg/m^2 i.v.; infusion 1 hr; 12 hr after infusion; LLOQ 1 ng/mL
Where a name gives a salt, the structure may show the parent alone.
READOUT_KIND: concentration at 12 h after end of infusion (ng/mL)
One number for each entry, in ng/mL.

Incoming: Return concentration at 12 h after end of infusion (reported value) for this molecule: COc1ccc(N(C)c2nc(C)nc3ccccc23)cc1 [hydrochloride]
Outgoing: 1.95

---

Assay: Phase I clinical trial: plasma concentrations after weekly intravenous infusion (pharmacokinetics)
Assay type: in vivo, human
Conditions: human, plasma, iv, 1 mg/m^2, Day 15; 1.0 mg/m^2 i.v.; infusion 1 hr; 1 hr after infusion; LLOQ 1 ng/mL
Description: An open-label, dose-escalating, multiple-dose study to define the safety, tolerability and pharmacokinetics of weekly intravenous administration of (4-Methoxy-phenyl)-methyl-(2-methyl-quinazolin-4-yl)-amine hydrochloride was performed. […] Any clinically significant electrocardiographic (ECG) wave form abnormality was recorded and prolongation of the monitoring period extended at the discretion of the principal investigator. […]
Where a name gives a salt, the structure may show the parent alone.
READOUT_KIND: concentration at 1 h (ng/mL)
One number for each entry, in ng/mL.

Incoming: Return concentration at 1 h for the following compound: COc1ccc(N(C)c2nc(C)nc3ccccc23)cc1 [hydrochloride]
Outgoing: 2.24

---

test: Phase I clinical trial: plasma concentrations after weekly intravenous infusion (pharmacokinetics); type: in vivo, human; settings: human, plasma, iv, 2.1 mg/m^2, Day 1; 2.1 mg/m^2 i.v.; infusion 1 hr; 2 hr after infusion; LLOQ 1 ng/mL
Counter-ions that a name gives are not always drawn.
READOUT_KIND: concentration at 2 h after end of infusion
Write your answer as a measured quantity: the number, then the unit.

Incoming: Given the compound COc1ccc(N(C)c2nc(C)nc3ccccc23)cc1 [hydrochloride] , write its reported concentration at 2 h after end of infusion.
Outgoing: 3.28 ng/mL

---

assay: Phase I clinical trial: plasma concentrations after weekly intravenous infusion (pharmacokinetics); type: in vivo, human; conditions: human, plasma, iv, 3.9 mg/m^2, Day 15; 3.9 mg/m^2 i.v.; infusion 2 hr; 4 hr after infusion; LLOQ 1 ng/mL
Where a name gives a salt, the structure may show the parent alone.
READOUT_KIND: concentration at 4 h (ng/mL)
Answers are plain numbers, in ng/mL.

Incoming: Look up concentration at 4 h of COc1ccc(N(C)c2nc(C)nc3ccccc23)cc1 [hydrochloride] and report it.
Outgoing: 8.24

---

experiment: Phase I clinical trial: plasma concentrations after weekly intravenous infusion (pharmacokinetics); assay type: in vivo, human; conditions: human, plasma, iv, 2.7 mg/m^2, Day 1; 2.7 mg/m^2 i.v.; infusion 1 hr; 1 hr after infusion; LLOQ 1 ng/mL
Structures can show the parent of a compound that is named as a salt.
READOUT_KIND: concentration at 1 h after end of infusion (ng/mL)
Answers are plain numbers, in ng/mL.

Incoming: Hello, please tell me recorded concentration at 1 h after end of infusion for this one: COc1ccc(N(C)c2nc(C)nc3ccccc23)cc1 [hydrochloride]
Outgoing: 6.16

---

Assay: Phase I clinical trial: plasma concentrations after weekly intravenous infusion (pharmacokinetics)
Type: in vivo, human
Conditions: human, plasma, iv, 1 mg/m^2, Day 1; 1.0 mg/m^2 i.v.; infusion 1 hr; 24 hr after infusion; LLOQ 1 ng/mL
Method: An open-label, dose-escalating, multiple-dose study to define the safety, tolerability and pharmacokinetics of weekly intravenous administration of (4-Methoxy-phenyl)-methyl-(2-methyl-quinazolin-4-yl)-amine hydrochloride was performed. […] Any clinically significant electrocardiographic (ECG) wave form abnormality was recorded and prolongation of the monitoring period extended at the discretion of the principal investigator. […]
Structures can show the parent of a compound that is named as a salt.
READOUT_KIND: concentration at 24 h after end of infusion (ng/mL)
Answers are plain numbers, in ng/mL.

Incoming: Write down concentration at 24 h after end of infusion measured for item COc1ccc(N(C)c2nc(C)nc3ccccc23)cc1 [hydrochloride]
Outgoing: 1.98

---

experiment: Phase I clinical trial: plasma concentrations after weekly intravenous infusion (pharmacokinetics); assay type: in vivo, human; details: human, plasma, iv, 0.3 mg/m^2, Day 15; 0.3 mg/m^2 i.v.; infusion 1 hr; 1 hr after infusion; LLOQ 1 ng/mL
Counter-ions that a name gives are not always drawn.
READOUT_KIND: concentration at 1 h (ng/mL)
One number for each entry, in ng/mL.

Incoming: Annotate the compound COc1ccc(N(C)c2nc(C)nc3ccccc23)cc1 [hydrochloride] with its measured concentration at 1 h.
Outgoing: 1.43

---

test: Phase I clinical trial: plasma concentrations after weekly intravenous infusion (pharmacokinetics); assay type: in vivo, human; conditions: human, plasma, iv, 2.1 mg/m^2, Day 15; 2.1 mg/m^2 i.v.; infusion 1 hr; 4 hr after infusion; LLOQ 1 ng/mL
Counter-ions that a name gives are not always drawn.
READOUT_KIND: concentration at 4 h (ng/mL)
Answers are plain numbers, in ng/mL.

Incoming: Report concentration at 4 h, nothing else, for this molecule: COc1ccc(N(C)c2nc(C)nc3ccccc23)cc1 [hydrochloride]
Outgoing: 2.05

---

test: Phase I clinical trial: plasma concentrations after weekly intravenous infusion (pharmacokinetics); format: in vivo, human; details: human, plasma, iv, 1.5 mg/m^2, Day 15; 1.5 mg/m^2 i.v.; infusion 1 hr; 12 hr after infusion; LLOQ 1 ng/mL
Counter-ions that a name gives are not always drawn.
READOUT_KIND: concentration at 12 h (ng/mL)
One number for each entry, in ng/mL.

Incoming: # return recorded concentration at 12 h for entry COc1ccc(N(C)c2nc(C)nc3ccccc23)cc1 [hydrochloride]
Outgoing: 2.24

---

experiment: Phase I clinical trial: plasma concentrations after weekly intravenous infusion (pharmacokinetics); format: in vivo, human; settings: human, plasma, iv, 2.1 mg/m^2, Day 1; 2.1 mg/m^2 i.v.; infusion 1 hr; 12 hr after infusion; LLOQ 1 ng/mL
Counter-ions that a name gives are not always drawn.
READOUT_KIND: concentration at 12 h after end of infusion (ng/mL)
Give bare numbers, in ng/mL.

Incoming: Specify reported concentration at 12 h after end of infusion for the compound shown: COc1ccc(N(C)c2nc(C)nc3ccccc23)cc1 [hydrochloride]
Outgoing: 1.09

---

assay: Phase I clinical trial: plasma concentrations after weekly intravenous infusion (pharmacokinetics); type: in vivo, human; details: human, plasma, iv, 2.7 mg/m^2, Day 1; 2.7 mg/m^2 i.v.; infusion 1 hr; 4 hr after infusion; LLOQ 1 ng/mL
Counter-ions that a name gives are not always drawn.
READOUT_KIND: concentration at 4 h after end of infusion (ng/mL)
Answers are plain numbers, in ng/mL.

Incoming: Note down concentration at 4 h after end of infusion recorded for COc1ccc(N(C)c2nc(C)nc3ccccc23)cc1 [hydrochloride]
Outgoing: 3.16

---

test: Phase I clinical trial: plasma concentrations after weekly intravenous infusion (pharmacokinetics); type: in vivo, human; details: human, plasma, iv, 2.1 mg/m^2, Day 1; 2.1 mg/m^2 i.v.; infusion 1 hr; 6 hr after infusion; LLOQ 1 ng/mL
Structures can show the parent of a compound that is named as a salt.
READOUT_KIND: concentration at 6 h after end of infusion (ng/mL)
Give bare numbers, in ng/mL.

Incoming: # return recorded concentration at 6 h after end of infusion for input COc1ccc(N(C)c2nc(C)nc3ccccc23)cc1 [hydrochloride]
Outgoing: 1.12

---

assay: Phase I clinical trial: plasma concentrations after weekly intravenous infusion (pharmacokinetics); format: in vivo, human; details: human, plasma, iv, 3.3 mg/m^2, Day 15; 3.3 mg/m^2 i.v.; infusion 2 hr; 1 hr after infusion; LLOQ 1 ng/mL
Counter-ions that a name gives are not always drawn.
READOUT_KIND: concentration at 1 h (ng/mL)
Give bare numbers, in ng/mL.

Incoming: Please report the measured concentration at 1 h for COc1ccc(N(C)c2nc(C)nc3ccccc23)cc1 [hydrochloride]
Outgoing: 6.84
